- System: A2780cisR
- test: Induction of apoptosis in human A2780cisR cells assessed as depolarization of mitochondrial membrane potential incubated for 1 hr by TMRE staining based flow cytometry
- Assay type: functional, cell-based
measured_endpoint: IC50 (nM)
Kindly answer with a numeric value in nM, unit omitted.

*Q* Supply IC50 value. Item: CC(=O)OC[C@]12Oc3c(-c4ccc(O)c5c4O[C@@]4(COC(C)=O)C(=C(O)C[C@@H](C)[C@H]4OC(C)=O)C5=O)ccc(O)c3C(=O)C1=C(O)C[C@@H](C)[C@H]2OC(C)=O
*A* 1250

###

- Test system: A2780
- test: Antiproliferative activity against human A2780 cells assessed as reduction in cell viability incubated for 24 hrs by MTT assay
- Assay type: functional, cell-based
- condition_parameters: A2780, 24 h, read-out: IC50
measured_endpoint: pIC50
Here pIC50 is given on a logarithmic scale as minus log10 of the concentration in mol/L.

*Q* Identify pIC50 associated with the compound CC(=O)OC[C@]12Oc3c(-c4ccc(O)c5c4O[C@@]4(COC(C)=O)C(=C(O)C[C@@H](C)[C@H]4OC(C)=O)C5=O)ccc(O)c3C(=O)C1=C(O)C[C@@H](C)[C@H]2OC(C)=O
*A* 5.84
